- targetOrSystem: Src Kinase (p60c-Src) (Homo sapiens)
- Sequence (P12931 whole entry): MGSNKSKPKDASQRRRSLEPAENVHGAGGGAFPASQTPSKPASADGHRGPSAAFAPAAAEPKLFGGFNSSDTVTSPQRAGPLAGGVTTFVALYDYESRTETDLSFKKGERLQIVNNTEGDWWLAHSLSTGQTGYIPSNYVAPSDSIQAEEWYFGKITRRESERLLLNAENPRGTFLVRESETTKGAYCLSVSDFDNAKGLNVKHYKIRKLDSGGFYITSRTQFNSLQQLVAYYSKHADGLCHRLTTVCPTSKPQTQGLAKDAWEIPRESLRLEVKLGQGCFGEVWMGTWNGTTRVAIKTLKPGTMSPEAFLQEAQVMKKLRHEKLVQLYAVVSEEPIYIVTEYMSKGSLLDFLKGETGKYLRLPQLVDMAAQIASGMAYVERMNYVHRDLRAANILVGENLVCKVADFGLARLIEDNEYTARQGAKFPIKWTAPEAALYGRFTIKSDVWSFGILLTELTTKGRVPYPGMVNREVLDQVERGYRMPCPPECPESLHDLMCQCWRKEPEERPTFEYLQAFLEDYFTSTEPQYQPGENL
- assayComment: General Assay Method for Src-Kinase (DELFIA time-resolved fluorometry, poly(Glu,Tyr) substrate)
- protocolConditions: Src kinase 1:8000, 100 μM ATP, 15 min. at room temp; read-out: Activity (uMol. Delfia assay. IC50)
pIC50: −log10 of the molar value.
propertyLabel: pIC50

INSERT INTO assay_data (molecule, measurednumber) VALUES
  ('NC(=O)C(CC1CCCCC1)NC(=O)Nc1ccc(N2CCCN(C(=O)C3CCNCC3)CC2)c(NC(=O)CCCc2ccccc2)c1 (stereo not shown) [Example 20]', 4.55),
  ('CC(C)(C)c1ccc(Oc2cccc(CN(C(=O)c3cccc(C(=N)N)c3)C(Cc3cccc4ccccc34)C(=O)NCC(N)=O)c2)cc1 (stereo not shown) [Example 4]', 4.74);

1: NC(=O)C(CC1CCCCC1)NC(=O)Nc1ccc(N2CCN(C3CCCCC3)CC2)c(NC(=O)/C=C/c2ccccc2)c1 (stereo not shown) [Example 12]
2: CNCC(=O)N1CCCN(c2ccc(NC(=O)NCC3CCC(C(N)=O)CC3)cc2NC(=O)c2cc3ccccc3o2)CC1 (stereo not shown) [Example 17]
Hi team, can someone confirm which has the larger pIC50: 1 or 2 ? Thanks. Please reply using the label of the selected record.
1
